Listed next: entries and their corresponding self-cleavage.
B1: CPEB3 Ribozyme (parent)
chain: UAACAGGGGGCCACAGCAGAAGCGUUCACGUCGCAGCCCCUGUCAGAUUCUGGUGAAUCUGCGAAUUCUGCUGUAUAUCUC

variants of: B1; assay: self-cleavage, relative activity (ratio to wild type); higher = more cleavage; in vitro, sequencing
Form: value (number only, do not type unit).

G52C A65U: 0.32

Qu. Returns the measured self-cleavage for the input variant. Input: A56G A64G
Ans. 0.8

Qu. Returns the measured self-cleavage for the input variant. Input: U60C A65G
Ans. 0.28

Qu. Returns the measured self-cleavage for the input variant. Input: A18G U25G
Ans. 0.17

Qu. Returns the measured self-cleavage for the input variant. Input: G53A G61A
Ans. 0.73

Qu. Returns the measured self-cleavage for the input variant. Input: A35C A56U
Ans. 0.53

Qu. Returns the measured self-cleavage for the input variant. Input: C12A A21G
Ans. 0.73

Qu. Returns the measured self-cleavage for the input variant. Input: A18G C59A
Ans. 0.23

Qu. Returns the measured self-cleavage for the input variant. Input: C68A U74C
Ans. 0.86

Qu. Returns the measured self-cleavage for the input variant. Input: G8C C40U
Ans. 0.13

Qu. Returns the measured self-cleavage for the input variant. Input: C71G U78C
Ans. 0.36

Qu. Returns the measured self-cleavage for the input variant. Input: U1A U72A
Ans. 0.55

Qu. Returns the measured self-cleavage for the input variant. Input: G19U U69A
Ans. 0.27

Qu. Returns the measured self-cleavage for the input variant. Input: C27U U58C
Ans. 0.15
